# System under test: MLXBIR3SG (Homo sapiens, UniProt Q96CA5, S150G)
# Sequence (Q96CA5 with tags, fused parts or gaps S150G limits assumed): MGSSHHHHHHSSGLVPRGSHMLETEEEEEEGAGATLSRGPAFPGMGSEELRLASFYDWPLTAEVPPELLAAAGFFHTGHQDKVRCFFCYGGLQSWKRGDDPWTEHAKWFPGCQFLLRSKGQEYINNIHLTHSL
# Assay procedure: Fluorescence Polarization Peptide Binding Assay (competition with AVP-diPhe-FAM probe)
# Particulars: competition: MLXBIR3SG at 30 nM, 5 nM AVP-diPhe-FAM probe; Ki determined from the IC50 values

Compound	Unit descriptor	Ki
CN[C@@H](C)C(=O)N[C@H](C(=O)N1CCC[C@H]1c1cn2cccc(-c3ccc(N(C)C)cc3)c2n1)C1CCOCC1 [Compound 7]	nM	18900
CN[C@@H](C)C(=O)N[C@H](C(=O)N1CCC[C@H]1c1cn2cccc(-c3cccc4ccccc34)c2n1)C1CCOCC1 [Compound 20]	nM	1830
CN[C@@H](C)C(=O)N[C@H](C(=O)N1CCC[C@H]1c1cn2cccc(-c3ccc([N+](=O)[O-])cc3)c2n1)C1CCOCC1 [Compound 8]	nM	2310
CN[C@@H](C)C(=O)N[C@H](C(=O)N1CCC[C@H]1c1cn2c(-c3ccccc3)cccc2n1)C1CCOCC1 [Compound 1]	nM	89.1
